Reference for the values: the NIST ThermoML archive (doi:10.1021/je200682t)

Attribute: relative permittivity at zero frequency
test: relative permittivity at zero frequency (dimensionless); conditions: 278.15 K; 101.33 kPa; Liquid; Parallel plate capacitor
Numbers after ± are expanded uncertainties.
measured_endpoint: relative permittivity at zero frequency

In [3]: df
Out[3]:
                       compound  recorded_result
0      O=C1CCC1 [cyclobutanone]     15.98 ± 0.02
1  O=C1CCCCCC1 [cycloheptanone]      13.8 ± 0.02
2    O=C1CCCC1 [cyclopentanone]     14.25 ± 0.04
3    O=C1CCCCC1 [cyclohexanone]     17.07 ± 0.02

###

Attribute: relative permittivity at zero frequency
assay: relative permittivity at zero frequency (dimensionless); details: 260.65 K; 101.33 kPa; Liquid; Parallel plate capacitor
measured_endpoint: relative permittivity at zero frequency

                       compound  recorded_result
0      O=C1CCC1 [cyclobutanone]            16.93
1    O=C1CCCCC1 [cyclohexanone]            18.34
2  O=C1CCCCCC1 [cycloheptanone]            14.57
3    O=C1CCCC1 [cyclopentanone]            14.95

###

assay: relative permittivity at zero frequency (dimensionless); details: 263.15 K; 101.33 kPa; Liquid; Parallel plate capacitor
Attribute: relative permittivity at zero frequency
measured_endpoint: relative permittivity at zero frequency

   line_notation  recorded_result
0      O=C1CCCC1            14.85
1     O=C1CCCCC1            18.15
2    O=C1CCCCCC1            14.47
3       O=C1CCC1            16.79

###

assay: relative permittivity at zero frequency (dimensionless); settings: 293.15 K; 101.33 kPa; Liquid; Parallel plate capacitor
Numbers after ± are expanded uncertainties.
measured_endpoint: relative permittivity at zero frequency

>>> print(df.to_string())
   line_notation                        measured_endpoint  recorded_result
0      O=C1CCCC1  relative permittivity at zero frequency     13.67 ± 0.04
1     O=C1CCCCC1  relative permittivity at zero frequency     16.08 ± 0.02
2       O=C1CCC1  relative permittivity at zero frequency      15.2 ± 0.02
3    O=C1CCCCCC1  relative permittivity at zero frequency     13.14 ± 0.02

###

experiment: relative permittivity at zero frequency (dimensionless); conditions: 253.15 K; 101.33 kPa; Liquid; Parallel plate capacitor
measured_endpoint: relative permittivity at zero frequency

In [3]: df
Out[3]:
   line_notation                        measured_endpoint  recorded_result
0    O=C1CCCCCC1  relative permittivity at zero frequency            14.97
1     O=C1CCCCC1  relative permittivity at zero frequency            18.93
2      O=C1CCCC1  relative permittivity at zero frequency            15.26
3       O=C1CCC1  relative permittivity at zero frequency            17.37

###

assay: relative permittivity at zero frequency (dimensionless); conditions: 248.15 K; 101.33 kPa; Liquid; Parallel plate capacitor
measured_endpoint: relative permittivity at zero frequency

In [3]: df
Out[3]:
   line_notation  recorded_result
0       O=C1CCC1            17.66
1      O=C1CCCC1            15.46
2    O=C1CCCCCC1            15.22
3     O=C1CCCCC1            19.34
